test: RP, Thermo Scientific Hypersil GOLD, 1.9 µm, 40 °C, 0.4 mL/min; A: water + 0.1% formic acid, pH 3; B: acetonitrile + 0.1% formic acid, pH 3; gradient (min/%B) 0/0 1/0 11/100 13/100 14/0 16/0; conditions: stereoisomer not certain
Structures can show the parent of a compound that is named as a salt.
Rule: LC retention time under 0.7 min gives 0 (no), otherwise 1 (yes).

Check out these entries, answers already filled in.
NC1C(O)OC(COS(=O)(=O)O)C(O)C1O (configuration not stated) [GLUCOSAMINE 6-SULFATE]
0 (no)
CCCCCCC=CCCCCCCCC(=O)O [PALMITOLEATE]
1 (yes)
CC(CCC(=O)O)C1CCC2C3CCC4CC(O)CCC4(C)C3CC(O)C12C (configuration not stated) [deoxycholic acid]
1 (yes)
CCCCCCCCCCCCCCCC(O)C(N)CO (configuration not stated) [SPHINGANINE]
1 (yes)
NC(CSSCC(N)C(=O)O)C(=O)O (configuration not stated) [CYSTINE]
0 (no)
COC(=O)CCCCC(=O)O [mono-Methyl adipate]
1 (yes)
CCCCCCCCCCCC=CCCCCC(=O)[O-] [PETROSELINATE]
1 (yes)
CCCCCCCC=CC(=O)OC(CC(=O)[O-])C[N+](C)(C)C (stereo not drawn) [Trans -2-decenoyl-l-carnitine]
1 (yes)
CC12CCC(=O)C=C1CCC1C2C(O)CC2(C)C(C(=O)CO)CCC12 (configuration not stated) [CORTICOSTERONE]
1 (yes)
CNCC(=O)O [SARCOSINE]
0 (no)

Check this compound for LC retention time at or above 0.7 min: O=C1CC(C(=O)O)NC(=O)N1 (configuration not stated) [DIHYDROOROTATE]
1 (yes)

Check this compound for LC retention time at or above 0.7 min: Nc1ccn(C2CC(O)C(CO)O2)c(=O)n1 (configuration not stated) [DEOXYCYTIDINE]
1 (yes)

Check this compound for LC retention time at or above 0.7 min: O=C(O)c1cc[n+]([O-])cc1 [Isonicotinic acid N-oxide]
1 (yes)

Check this compound for LC retention time at or above 0.7 min: CC(N)(Cc1cnc[nH]1)C(=O)O (racemic) [Alpha-methyl-DL-histidine dihydrochloride]
0 (no)
